System: HeLa Kyoto;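 note: synchronized HeLa Kyoto cells, proteins quantified by TMT10plex mass spectrometry, three biological replicates, mitosis taken 0.5 h after nocodazole release, G1/S directly after double thymidine block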
Experiment: thermal stability score vs G1/S (z-score of summed log2 fold changes over temperatures); higher = more thermally stable than in G1/S
Details: cell cycle stage: early G1 (4.5 h after nocodazole release)
MEASURED_QUANTITY: thermal stability score
Please state the value as a number alone, without comment.

State, in one line, measured thermal stability score of MSAFDTNPFADPVDVNPFQDPSVTQLTNAPQGGLAEFNPFSETNAATTVPVTQLPGSSQPAVLQPSVEPTQPTPQAVVSAAQAGLLRQQEELDRKAAELERKERELQNTVANLHVRQNNWPPLPSWCPVKPCFYQDFSTEIPADYQRICKMLYYLWMLHSVTLFLNLLACLAWFSGNSSKGVDFGLSILWFLIFTPCAFLCWYRPIYKAFRSDNSFSFFVFFFVFFCQIGIYIIQLVGIPGLGDSGWIAALSTLDNHSLAISVIMMVVAGFFTLCAVLSVFLLQRVHSLYRRTGASFQQAQEEFSQGIFSSRTFHRAASSAAQGAFQGN [SCAMP2]
-1.72
